# measured on: dihydrofolate reductase (DHFR)
# assay method text: DHFR kinetic assay, spectrophotometric oxidation of NADH (340 nm)
# Format: biochemical
# experimental setup: common ligand mimics, Examples 23/24; read-out: IC50 for DHFR
property: IC50

N=C1NC(=O)C(=Cc2ccc(C(=O)O)cc2)S1 :: > 20 µM

Let us examine a further case.
Fill blank: measured IC50 of the compound `COc1cc(O)ccc1C=C1SC(=N)NC1=O` is ____.
> 100 µM

----------
# measured on: lactate dehydrogenase (LDH) (Oryctolagus cuniculus, UniProt P13491)
# Lookup of reported IC50 keyed by entry

N=C1NC(=O)C(=Cc2ccc(O)c([N+](=O)[O-])c2)S1 :: 27.9 µM
N=C1NC(=O)C(=Cc2ccc(C(=O)O)cc2)S1 :: > 100 µM

Let us examine a further case.
Fill blank: measured IC50 of the compound `COc1cc(C=C2SC(N)=NC2=O)ccc1O` is ____.
> 100 µM

----------
# measured on: dihydrofolate reductase (DHFR)
# assay method text: DHFR kinetic assay, spectrophotometric oxidation of NADH (340 nm)
# Format: biochemical
# experimental setup: read-out: IC50 for DHFR; common ligand mimics, Examples 23/24
property: IC50

Fill blank: measured IC50 of the compound `COc1cc(C=C2SC(N)=NC2=O)ccc1O` is ____.
> 100 µM

Fill blank: measured IC50 of the compound `N=C1NC(=O)C(=Cc2ccc(O)c([N+](=O)[O-])c2)S1` is ____.
> 75 µM

----------
# measured on: 1-deoxy-D-xylulose-5-phosphate reductase (DOXPR) (Escherichia coli)
# Sequence (P45568 whole entry): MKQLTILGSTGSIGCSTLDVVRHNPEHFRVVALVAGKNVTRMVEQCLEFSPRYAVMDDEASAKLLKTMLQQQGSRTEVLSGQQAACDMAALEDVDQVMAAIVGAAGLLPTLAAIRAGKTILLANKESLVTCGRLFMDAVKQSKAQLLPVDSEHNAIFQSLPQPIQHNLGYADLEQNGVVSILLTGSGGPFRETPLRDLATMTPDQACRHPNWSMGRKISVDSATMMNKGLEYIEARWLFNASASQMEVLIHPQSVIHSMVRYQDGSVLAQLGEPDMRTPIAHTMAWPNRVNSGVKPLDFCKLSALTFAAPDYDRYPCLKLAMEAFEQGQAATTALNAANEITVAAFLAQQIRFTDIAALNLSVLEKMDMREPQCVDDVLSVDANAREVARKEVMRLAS
# assay method text: DOXPR kinetic assay, spectrophotometric oxidation of NADPH (340 nm)
# Format: biochemical
# experimental setup: common ligand mimics, Examples 23/24; read-out: IC50 for DOXPR
# Lookup of reported IC50 keyed by entry

COc1cc(O)ccc1C=C1SC(=N)NC1=O :: > 100 µM

Let us examine a further case.
Observed IC50 on 1-deoxy-D-xylulose-5-phosphate reductase (DOXPR) (Escherichia coli) for `N=C1NC(=O)C(=Cc2ccc(C(=O)O)cc2)S1` , please.
> 25 µM

----------
# measured on: alcohol dehydrogenase (ADH) (Saccharomyces cerevisiae)
# Sequence (P00330 1-348): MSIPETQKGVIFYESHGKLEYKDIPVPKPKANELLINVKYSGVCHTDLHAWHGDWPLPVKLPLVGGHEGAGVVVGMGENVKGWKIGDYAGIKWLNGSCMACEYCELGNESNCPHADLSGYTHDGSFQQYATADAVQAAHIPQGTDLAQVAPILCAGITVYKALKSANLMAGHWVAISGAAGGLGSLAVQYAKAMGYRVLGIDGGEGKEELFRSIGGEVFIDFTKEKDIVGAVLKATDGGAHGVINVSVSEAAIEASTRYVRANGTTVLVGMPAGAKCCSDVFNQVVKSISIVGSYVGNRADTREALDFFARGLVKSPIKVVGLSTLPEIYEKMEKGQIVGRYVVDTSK
pIC50: −log10 of the molar value.
property: pIC50

Completed entries (count: 2):
N=C1NC(=O)C(=Cc2ccc(O)c([N+](=O)[O-])c2)S1 :: < 3.82
N=C1NC(=O)C(=Cc2ccc(C(=O)O)cc2)S1 :: < 4.00

Fill blank: measured pIC50 of the compound `COc1cc(C=C2SC(N)=NC2=O)ccc1O` is ____.
< 4.00

----------
# Lookup of reported pIC50 keyed by entry
# measured on: 1-deoxy-D-xylulose-5-phosphate reductase (DOXPR) (Escherichia coli)
# assay method text: DOXPR kinetic assay, spectrophotometric oxidation of NADPH (340 nm)
# Format: biochemical
pIC50: −log10 of the molar value.

N=C1NC(=O)C(=Cc2ccc(O)c([N+](=O)[O-])c2)S1 :: < 4.00

Let us examine a further case.
Fill blank: measured pIC50 of the compound `COc1cc(C=C2SC(N)=NC2=O)ccc1O` is ____.
< 4.00

----------
# measured on: inosine-5′-monophosphate dehydrogenase (IMPDH)
# assay method text: IMPDH kinetic assay, spectrophotometric reduction of NAD+ (340 nm)
# experimental setup: common ligand mimics, Examples 23/24
pIC50: −log10 of the molar value.
property: pIC50

Completed entries (count: 2):
N=C1NC(=O)C(=Cc2ccc(O)c([N+](=O)[O-])c2)S1 :: < 4.12
COc1cc(C=C2SC(N)=NC2=O)ccc1O :: < 4.00

Fill blank: measured pIC50 of the molecule `N=C1NC(=O)C(=Cc2ccc(C(=O)O)cc2)S1` is ____.
< 4.40

----------
# measured on: dihydrodipicolinate reductase (DHPR) (Escherichia coli, UniProt P04036)
# Sequence (P04036 whole entry): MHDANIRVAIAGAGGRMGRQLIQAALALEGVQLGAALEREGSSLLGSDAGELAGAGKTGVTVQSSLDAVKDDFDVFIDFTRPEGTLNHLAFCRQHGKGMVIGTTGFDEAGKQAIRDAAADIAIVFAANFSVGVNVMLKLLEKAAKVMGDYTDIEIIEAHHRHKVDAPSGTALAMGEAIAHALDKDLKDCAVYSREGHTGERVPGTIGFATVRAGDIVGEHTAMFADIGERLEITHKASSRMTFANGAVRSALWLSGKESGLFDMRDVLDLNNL
# assay method text: DHPR kinetic assay, spectrophotometric oxidation of NADPH (340 nm)
# Assay type: biochemical
pIC50: −log10 of the molar value.
# Lookup of reported pIC50 keyed by entry

COc1cc(C=C2SC(N)=NC2=O)ccc1O :: < 4.12

Let us examine a further case.
Fill blank: measured pIC50 of the molecule `N=C1NC(=O)C(=Cc2ccc(O)c([N+](=O)[O-])c2)S1` is ____.
< 4.00

----------
# measured on: glyceraldehyde-3-phosphate dehydrogenase (GAPDH) (Escherichia coli)
# Sequence (P0A9B2 whole entry): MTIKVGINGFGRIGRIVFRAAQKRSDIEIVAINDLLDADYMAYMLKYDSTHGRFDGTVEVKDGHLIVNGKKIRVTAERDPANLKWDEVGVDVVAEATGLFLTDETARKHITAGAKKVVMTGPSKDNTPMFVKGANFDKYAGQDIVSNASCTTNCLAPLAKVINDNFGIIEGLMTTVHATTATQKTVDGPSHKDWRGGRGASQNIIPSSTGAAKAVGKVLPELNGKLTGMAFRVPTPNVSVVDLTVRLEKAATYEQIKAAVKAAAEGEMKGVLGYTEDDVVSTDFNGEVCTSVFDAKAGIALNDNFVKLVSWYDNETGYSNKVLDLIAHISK
# assay method text: GAPDH kinetic assay, spectrophotometric reduction of NAD+ (340 nm)
# Format: biochemical, E. coli
property: IC50
The reply must contain the numeric value and, after it, the unit.

Fill blank: measured IC50 of the molecule `N=C1NC(=O)C(=Cc2ccc(O)c([N+](=O)[O-])c2)S1` is ____.
153 µM

----------
# measured on: UniProt:P0A9B2
# assay method text: GAPDH kinetic assay, spectrophotometric reduction of NAD+ (340 nm)
# Type: biochemical, E. coli
# experimental setup: common ligand mimics, Examples 23/24; E. coli GAPDH; read-out: IC50 for GAPDH
property: IC50

Fill blank: measured IC50 of the compound `N=C1NC(=O)C(=Cc2ccc(C(=O)O)cc2)S1` is ____.
> 100 µM

----------
# Lookup of reported IC50 keyed by entry
# measured on: dihydrodipicolinate reductase (DHPR) (Escherichia coli, UniProt P04036)
# assay method text: Screening of bi-ligands for DHPR (Example 25), kinetic assay at 340 nm
# Type: biochemical
# experimental setup: bi-ligands, Example 25 (FIG. 7); substrate and NADPH near Km

N=C1NC(=O)C(=Cc2cccc(C(=O)NCCSc3cc(C(=O)O)nc(C(=O)O)c3)c2)S1 :: ~1.02 µM

Let us examine a further case.
Fill blank: measured IC50 of the compound `N=C1NC(=O)C(=Cc2ccc(C(=O)NCCSc3cc(C(=O)O)nc(C(=O)O)c3)cc2)S1` is ____.
~33 µM
